# tested-target: human sphingosine-1-phosphate receptor 1 (S1P1) (Homo sapiens (Human))
# Sequence (P21453 whole entry, looked up): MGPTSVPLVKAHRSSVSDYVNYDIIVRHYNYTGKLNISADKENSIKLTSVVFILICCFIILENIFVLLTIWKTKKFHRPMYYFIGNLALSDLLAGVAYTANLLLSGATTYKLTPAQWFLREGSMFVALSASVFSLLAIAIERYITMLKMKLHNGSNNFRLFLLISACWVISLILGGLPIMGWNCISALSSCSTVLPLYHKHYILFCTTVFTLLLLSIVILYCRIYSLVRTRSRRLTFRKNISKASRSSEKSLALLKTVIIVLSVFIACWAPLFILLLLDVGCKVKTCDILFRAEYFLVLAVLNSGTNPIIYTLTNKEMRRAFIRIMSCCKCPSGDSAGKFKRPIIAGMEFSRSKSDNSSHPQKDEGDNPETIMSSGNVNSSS
# Sequence (P32121 whole entry partner, looked up): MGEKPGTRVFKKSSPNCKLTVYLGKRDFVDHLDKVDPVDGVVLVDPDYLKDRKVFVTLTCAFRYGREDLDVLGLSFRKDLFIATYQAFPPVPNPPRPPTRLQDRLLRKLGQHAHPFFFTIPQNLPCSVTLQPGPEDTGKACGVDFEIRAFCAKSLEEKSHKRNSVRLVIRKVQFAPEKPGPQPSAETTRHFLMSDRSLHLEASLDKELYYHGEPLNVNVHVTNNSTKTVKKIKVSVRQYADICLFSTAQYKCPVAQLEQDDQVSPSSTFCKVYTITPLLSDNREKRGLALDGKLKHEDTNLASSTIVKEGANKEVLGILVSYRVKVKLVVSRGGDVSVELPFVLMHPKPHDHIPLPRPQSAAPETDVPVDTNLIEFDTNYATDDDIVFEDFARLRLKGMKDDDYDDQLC
# assay-text: β-Arrestin2 recruitment assay (PathHunter), S1P1 CHO-K1 cells
# Assay type: cell-based
# measurement-setup: β-arrestin2 recruitment, S1P1 CHO-K1 cells
reported-property: hS1P1 B-arrestin2 pEC50

Field: example entries. Status: answers known.
smiles-input: COc1ccccc1-c1cnc(-c2ccc3c(c2)nnn3C(C)C)s1
recorded-measurement: <5

smiles-input: CSc1ccccc1-c1nc(-c2ccc3c(c2)nnn3C2CCCC2)no1
recorded-measurement: >5

smiles-input: Cc1cccc(-c2nc(-c3ccc4c(c3)nnn4C3CCCC3)no2)c1
recorded-measurement: <5

smiles-input: Cc1ccncc1-c1noc(-c2ccc3c(c2)nnn3C2CC2)n1
recorded-measurement: <5

Request: # hS1P1 B-arrestin2 pEC50 lookup, item `CC(C)n1nnc2cc(-c3nc(-c4ccccn4)co3)ccc21`
Response: <5

Request: Would you kindly repeat that for `CCC1(CC)CC(=O)c2cc(-c3nc(-c4cccnc4O)no3)ccc2O1` ?
Response: <5

Request: Another molecule to look at: `Cc1nc2cc(-c3nnc(-c4ccc(NCC(F)F)c(C#N)c4)o3)ccc2[nH]1`
Response: >5

Request: Next molecule up: `COc1cccc(OC)c1-c1noc(-c2ccc3c(cnn3C(C)C)c2)n1`
Response: <5

Request: # repeat for `CC(C)c1ccc(-c2nc(-c3ccc4c(c3)nnn4C(C)C)no2)cn1`
Response: <5

----------
# Test system: paclitaxel induced peripheral neuropathy
# assay-text: Reversal of allodynia induced by paclitaxel in mice (s.c. or p.o., von Frey frequency method)
# Format: in vivo, c57bl/6 mice
# measurement-setup: Mus musculus, po, 1 h, 3 mg/kg p.o., tested 60 min after dosing, read-out: Screen @ 3 mg/kg po (% MPE)
# Method: Compounds were tested for efficacy in mouse models of chemotherapy induced peripheral neuropathy. […] For these studies […]/6 mice are habituated to the test environment and baseline measurements of pain sensitivity are assessed. […] If there was a withdrawal response, it was recorded as a positive response. […] After approximately 14 days from the initiation of PAC injections, animals are re-assessed for mechanical sensitivity. […]
# inhibition in vivo at 3 mg/kg annotations

Take a look at these entries with their results.
compound: N#Cc1cc(-c2nc(-c3ccc4[nH]c(=O)[nH]c4c3)no2)ccc1NCC1CC1 [Compound 729]
inhibition in vivo at 3 mg/kg: > 50%

compound: CCC1(CC)CC(=O)c2cc(-c3nc(-c4cncc(C)c4)no3)ccc2O1 [Compound 563]
inhibition in vivo at 3 mg/kg: < 50%

API: the following record is the query input.
Request: What measured inhibition in vivo at 3 mg/kg is associated with COc1ncccc1-c1nc(-c2ccc3c(c2)nnn3C(C)C)no1 [Compound 607] on paclitaxel induced peripheral neuropathy?
Response: > 50%

----------
# tested-target: human sphingosine-1-phosphate receptor 1 (S1P1) (Homo sapiens (Human))
# assay-text: β-Arrestin2 recruitment assay (PathHunter), S1P1 CHO-K1 cells
# Format: cell-based
# measurement-setup: β-arrestin2 recruitment, S1P1 CHO-K1 cells
Quick reference: hS1P1 B-arrestin2 pEC50 of the listed items.

compound: CCC1(CC)CC(=O)c2cc(-c3nc(-c4sccc4C)no3)ccc2O1 [Compound 265]
recorded-measurement: >5
//
compound: N#Cc1cc(-c2nc(-c3ccc4oc(=O)[nH]c4c3)no2)ccc1NCC1CC1 [Compound 423]
recorded-measurement: >5
//
compound: CCC1(CC)CC(=O)c2cc(-c3nc(-c4cccs4)no3)ccc2O1 [Compound 467]
recorded-measurement: >5
//
compound: CC(C)n1nnc2cc(-c3nc4c(Br)cccc4o3)ccc21 [Compound 428]
recorded-measurement: <5
//
compound: CCCn1nnc2cc(-c3nc(-c4ccncc4)no3)ccc21 [Compound 205]
recorded-measurement: <5

Request: Field request: hS1P1 B-arrestin2 pEC50 | item: CCC1(CC)CC(=O)c2cc(-c3nc(-c4ccc(NC)cc4)no3)ccc2O1 [Compound 153]
Response: >5

Request: What do you get for COc1ccccc1-c1noc(-c2cnc3c(c2)nnn3C(C)C)n1 [Compound 383] ?
Response: >5

Request: N#Cc1cc(-c2nnc(-c3ccc4[nH]cnc4c3)o2)ccc1NCC(F)F [Compound 359] , same question.
Response: >5

Request: Note, next up: COc1cc(-c2noc(-c3ccc4c(c3)nnn4C3CC3)n2)ccn1 [Compound 155]
Response: <5

----------
# Test system: paclitaxel induced peripheral neuropathy
# assay-text: Reversal of allodynia induced by paclitaxel in mice (s.c. or p.o., von Frey frequency method)
# Format: in vivo, c57bl/6 mice
# measurement-setup: Mus musculus, po, 1 h, 3 mg/kg p.o., tested 60 min after dosing, read-out: Screen @ 3 mg/kg po (% MPE)
reported-property: inhibition in vivo at 3 mg/kg

molecule: CC(C)n1nnc2cc(-c3noc(-c4ccccc4N(C)C)n3)ccc21 [Compound 615]
inhibition in vivo at 3 mg/kg: > 50%
//
molecule: N#Cc1cc(-c2nnc(-c3ccc4[nH]cnc4c3)o2)ccc1NC(CF)CF [Compound 600]
inhibition in vivo at 3 mg/kg: < 50%
//
molecule: N#Cc1cc(-c2nnc(-c3cccc4[nH]cnc34)o2)ccc1NCC(F)F [Compound 586]
inhibition in vivo at 3 mg/kg: < 50%
//
molecule: CC(C)Nc1ccc(-c2nnc(-c3ccc4[nH]cnc4c3)o2)cc1C#N [Compound 356]
inhibition in vivo at 3 mg/kg: > 50%
//
molecule: CCC1(CC)CC(=O)c2cc(-c3nc(-c4cn[nH]c4)no3)ccc2O1 [Compound 469]
inhibition in vivo at 3 mg/kg: > 50%

Request: Under paclitaxel induced peripheral neuropathy: inhibition in vivo at 3 mg/kg value of Cn1cnc2ccc(-c3nnc(-c4ccc(NCC(F)F)c(C#N)c4)o3)cc21 [Compound 580] ?
Response: > 50%

Request: Please do the same for CCC1(CC)CC(=O)c2cc(-c3nc(-c4cccnc4)no3)ccc2O1 [Compound 103] as well.
Response: > 50%

Request: Same lookup for N#Cc1cc(-c2nc(-c3ccc4c(c3)CCC(=O)N4)no2)ccc1NCC(F)(F)F [Compound 472] , please.
Response: > 50%

----------
# tested-target: sphingosine-1-phosphate receptor 5 (S1P5) (Homo sapiens (Human))
# Sequence (Q9H228 whole entry): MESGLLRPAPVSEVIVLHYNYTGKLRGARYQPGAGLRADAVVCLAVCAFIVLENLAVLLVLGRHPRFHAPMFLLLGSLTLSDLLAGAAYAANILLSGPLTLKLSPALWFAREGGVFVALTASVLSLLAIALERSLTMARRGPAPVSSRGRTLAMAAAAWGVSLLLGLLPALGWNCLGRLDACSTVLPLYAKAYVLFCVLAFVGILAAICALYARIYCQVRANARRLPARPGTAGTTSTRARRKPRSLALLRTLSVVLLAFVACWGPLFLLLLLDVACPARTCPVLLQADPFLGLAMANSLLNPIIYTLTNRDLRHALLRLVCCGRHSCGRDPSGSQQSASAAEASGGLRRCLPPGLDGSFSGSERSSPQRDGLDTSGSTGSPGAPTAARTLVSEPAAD
# assay-text: Inhibition of cAMP production (HTRF), S1P5 CHO-K1 cells
# Type: cell-based
# measurement-setup: inhibition of cAMP production, hS1P5
reported-property: hS1P5 cAMP pEC50

Some entries whose results are on file:
compound: CCC1(CC)CC(=O)c2cc(-c3nc(-c4ccccc4Cl)no3)ccc2O1 [Compound 221]
recorded-measurement: >5.0
--
compound: Cc1ccccc1-c1noc(-c2ccc3c(c2)nnn3C(C)C)n1 [Compound 293]
recorded-measurement: <5.0
--
compound: CC(C)n1nnc2cc(-c3nc(-c4cccc5c4OCO5)no3)ccc21 [Compound 32]
recorded-measurement: <5.0
--
compound: COc1ccccc1-c1coc(-c2ccc3c(c2)nnn3C(C)C)n1 [Compound 277]
recorded-measurement: <5.0

Request: Can you share its hS1P5 cAMP pEC50? I mean this compound: CC(C)n1nnc2cc(-c3nc(-c4cccc5c4OCCC5)no3)ccc21 [Compound 304]
Response: <5.0

Request: Another: CC(C)Nc1ccc(-c2nc(-c3ccc4c(c3)CCC(=O)N4)no2)cc1C#N [Compound 259]
Response: <5.0

Request: Same thing, different compound: CCC1(CC)CC(=O)c2cc(-c3nc(-c4ccc(NS(C)(=O)=O)cc4)no3)ccc2O1 [Compound 262]
Response: <5.0

Request: What do we get for C=CCNc1ccc(-c2nc(-c3ccc(NS(C)(=O)=O)cc3)no2)cc1C#N [Compound 149] ?
Response: >5.0

----------
# tested-target: UniProtKB P21453
# assay-text: β-Arrestin2 recruitment assay (PathHunter), S1P1 CHO-K1 cells
# Type: cell-based
# measurement-setup: CHO-K1; efficacy (SPAN) normalized to fingolimod; read-out: hS1P1 B-arrestin2 SPAN
reported-property: Emax

Some solved cases for reference:
compound: COc1cccc(OC)c1-c1noc(-c2ccc3c(c2)nnn3C(C)C)n1 [Compound 251]
tested-target: UniProtKB P21453
Emax: < 75%
//
compound: N#Cc1cc(-c2nnc(-c3ccc4[nH]cnc4c3)o2)ccc1NCC(F)F [Compound 359]
tested-target: UniProtKB P21453
Emax: > 75%

Request: # get_value(readout='Emax', item= C=CCNc1ccc(-c2nc(-c3ccc4c(c3)CC(=O)N4)no2)cc1C#N [Compound 224] )
Response: > 75%

Request: Ok, now CCC1(CC)CC(=O)c2cc(-c3nc(-c4ccc(S(N)(=O)=O)cc4)no3)ccc2O1 [Compound 106]
Response: > 75%

Request: Could you do the same for Cn1nnc2cc(-c3noc(-c4ccccc4Br)n3)ccc21 [Compound 73] , please?
Response: < 75%

Request: Now the same for CCC1(CC)CC(=O)c2cc(-c3nc(-c4cccnc4OC)no3)ccc2O1 [Compound 147]
Response: > 75%

Request: How about this compound: COc1ccc2nc(-c3ccc4c(c3)nnn4C(C)C)oc2c1 [Compound 426]
Response: > 75%

Request: N#Cc1cc(-c2nnc(-c3ccc4[nH]cnc4c3)o2)ccc1NCCF [Compound 358] , same question.
Response: > 75%

Request: What do we get for COc1ncccc1-c1nc(-c2ccc3c(c2)nnn3C(C)C)no1 [Compound 607] ?
Response: > 75%

Request: Could you do the same for CC1(C)CCC2(CC1)CC(=O)c1cc(-c3nc(-c4ccncc4)no3)ccc1O2 [Compound 254] , please?
Response: < 75%

Request: Follow-up entry: COc1cccc(-c2coc(-c3ccc4c(c3)nnn4C(C)C)n2)c1 [Compound 385]
Response: > 75%

Request: Check Cc1ccsc1-c1nc(-c2ccc3c(c2)nnn3C(C)(C)CO)no1 [Compound 611] too.
Response: < 75%
